test system: LOX IMVI melanoma; test: NCI tumour cell line growth inhibition, 48 h
Quick rule for you: TGI at 7 µM or higher means yes, lower means no.

A selection of reference data follows.
CC(C(=O)C(C)O[Si](c1ccccc1)(c1ccccc1)C(C)(C)C)=P(c1ccccc1)(c1ccccc1)c1ccccc1 (centres undefined) : yes
Oc1[nH]c2ccccc2c1N=NC(=S)NCc1ccccn1 : yes

Inquiry: hey, is TGI for this one >= 7 µM? CN1C(=O)[C@](C)(Cc2ccc(F)cc2)N(C(=O)OC(C)(C)C)[C@@H]1C(C)(C)C
Reply text: yes

Inquiry: Reported TGI reaches at least 7 µM for S=C1NC2=C(CCOc3c2ccc2ccccc32)C(c2ccc(Cl)cc2)N1 (centres undefined) ?
Reply text: yes

Inquiry: Please indicate if the recorded TGI for CCOC(=O)/C=C/C(Br)=C(Br)/C=C/C(=O)OCC meets or exceeds 7 µM.
Reply text: yes

Inquiry: Does TGI meet or surpass 7 µM for N#CCCCCCn1c2ccccc2c2c3c(c4c5ccccc5[nH]c4c21)C(=O)N(O)C3=O ?
Reply text: no

Inquiry: Decide: is the reported value of TGI for C=CCN1C(=O)C/C(=C2/CCC(=O)N2CC=C)C1=O equal to or greater than 7 µM?
Reply text: yes

Inquiry: Threshold query (TGI >= 7 µM) on NS(=O)(=O)c1ccc(N=Nc2cc3ccccc3c(C(=O)O)c2O)cc1
Reply text: yes

Inquiry: Decide: TGI of BrCC[N+]12CCCN1CCC2 >= 7 µM?
Reply text: yes

Inquiry: Threshold query (TGI >= 7 µM) on CCOC(=O)CCC1(C(=O)O[C@@H]2C[C@H](C)CC[C@H]2C(C)C)CCCCC1=O (some centres undefined)
Reply text: yes

Inquiry: Decide: is the reported value of TGI for COC(=O)CCCCCCCCC(=O)c1c(C)[nH]c(/C=C2\N=C(c3ccc[nH]3)C=C2OC)c1C equal to or greater than 7 µM?
Reply text: no

Inquiry: Determine whether measured TGI meets or exceeds 7 µM for CCOC(=O)CCC(NC(=O)c1ccc(Nc2nc3cc(N)cc(N)c3nc2-c2ccccc2)cc1)C(=O)OCC (centres undefined)
Reply text: yes

Inquiry: # bool: TGI of COc1ccc(Cn2nc(OCc3ccccc3)c3cc([N+](=O)[O-])ccc32)cc1 >= 7 µM
Reply text: yes

Inquiry: Exam item: decide whether the reported TGI for COc1ccc(-c2nc3ncccn3c2-c2ccc(S(C)(=O)=O)cc2)cc1 is at least 7 µM.
Reply text: yes

Inquiry: Kindly determine if TGI recorded for COC(=O)[C@@H](C)C[C@H](Cc1ccccc1)NC(=O)c1csc([C@@H](C[C@H](C(C)C)N(C)C(=O)[C@@H](NC(=O)CN(C)C)C2CC2)OC(C)=O)n1 is above or exactly 7 µM.
Reply text: yes

Inquiry: Evaluate O=C(Nc1ccc(I)cc1F)c1cc(F)ccc1O : TGI at minimum 7 µM?
Reply text: no

Inquiry: Tell me whether TGI is at least 7 µM here: NS(=O)(=O)c1ccc(NS(=O)(=O)c2ccc(NC(=O)N(c3ccccc3)c3ccccc3)cc2)cc1
Reply text: yes

Inquiry: Record Nc1ccc(C(=O)N/C(=C\c2ccc3c(c2)OCO3)c2nc3ccc4c(c3[nH]2)C(=O)c2ccccc2C4=O)cc1 ; criterion: TGI no lower than 7 µM. Met?
Reply text: yes

Inquiry: TGI >= 7 µM for O=C(O)CCC(NC(=O)/C(=C/c1ccccc1)NC(=O)c1ccccc1)C(=O)O (centres undefined) ?
Reply text: yes
